- target-under-test: T1, CD30 on CD30-expressing tumor cell lines (HH, MJ, H9) (UniProt P28908 19-595)
- T1 sequence (looked up): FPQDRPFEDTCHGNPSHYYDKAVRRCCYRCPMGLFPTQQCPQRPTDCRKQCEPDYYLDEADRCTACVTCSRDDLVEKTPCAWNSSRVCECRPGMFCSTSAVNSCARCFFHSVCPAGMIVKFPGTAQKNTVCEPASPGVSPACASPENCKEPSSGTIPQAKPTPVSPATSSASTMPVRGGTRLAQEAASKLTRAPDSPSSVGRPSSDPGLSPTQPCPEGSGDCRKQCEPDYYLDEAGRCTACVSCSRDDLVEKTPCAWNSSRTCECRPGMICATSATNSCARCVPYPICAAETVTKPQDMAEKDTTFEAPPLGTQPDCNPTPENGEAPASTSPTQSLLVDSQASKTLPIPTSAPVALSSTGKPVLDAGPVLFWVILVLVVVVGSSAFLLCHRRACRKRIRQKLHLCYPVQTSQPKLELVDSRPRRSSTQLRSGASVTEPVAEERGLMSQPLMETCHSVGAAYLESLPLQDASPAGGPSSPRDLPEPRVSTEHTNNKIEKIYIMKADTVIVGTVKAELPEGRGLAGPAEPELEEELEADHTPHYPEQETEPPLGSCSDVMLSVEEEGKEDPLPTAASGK
- assay-name: cell-based or functional assay
assay-readout: % MJ cell lysis E:T = 1:1 (LDH assay, CAR T cells)
Report the figure along with its unit, number first.

-- ask Any idea what its % MJ cell lysis E:T = 1:1 (LDH assay, CAR T cells) is? The binder is AS48542bbz CAR (other) QMQLVESGGGSVQAGETLRLSCTTSAFTFDGPDMAWYRQAPGNECVLVSIISADGRTYYADSVKGRFTISRDNAKNTVFLNLNSLQPEDTAVYYCALDPRKNCRGGYCCANWGPGTQVTVSSTTTPAPRPPTPAPTIASQPLSLRPEACRPAAGGAVHTRGLDFACDIYIWAPLAGTCGVLLLSLVITLYCKRGRKKLLYIFKQPFMRPVQTTQEEDGCSCRFPEEEEGGCELRVKFSRSADAPAYKQGQNQLYNELNLGRREEYDVLDKRRGRDPEMGGKPRRKNPQEGLYNELQKDKMAEAYSEIGMKGERRRGKGHDGLYQGLSTATKDTYDALHMQALPPR
-- reply 55%
